Molecular target: Pancreatic triacylglycerol lipase (Sus scrofa) (UniProt P00591)
Sequence (P00591 whole entry): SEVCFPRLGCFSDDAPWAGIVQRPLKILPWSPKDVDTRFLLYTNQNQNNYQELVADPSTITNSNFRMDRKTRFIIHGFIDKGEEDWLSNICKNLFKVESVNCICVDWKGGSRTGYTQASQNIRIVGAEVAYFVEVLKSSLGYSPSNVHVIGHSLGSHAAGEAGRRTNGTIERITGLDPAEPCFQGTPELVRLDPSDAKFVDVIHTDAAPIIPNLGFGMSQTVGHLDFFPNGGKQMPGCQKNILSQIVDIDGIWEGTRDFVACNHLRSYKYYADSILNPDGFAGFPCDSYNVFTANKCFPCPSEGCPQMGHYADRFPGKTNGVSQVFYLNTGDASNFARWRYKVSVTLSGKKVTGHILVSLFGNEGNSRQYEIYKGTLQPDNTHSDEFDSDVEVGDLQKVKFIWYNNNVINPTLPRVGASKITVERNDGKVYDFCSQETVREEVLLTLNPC
Experiment: Inhibition of porcine pancreatic lipase using para-nitrophenyl butyrate as substrate at 100 uM by ELISA
Calls of active or inactive are those of the source. The calls are words filed in the database; no cut-off is given here.
readout: Lipase inhibition (active/not active)

Sample records with Lipase inhibition (active/not active):
CC1=CC(=O)CC(C)(C)/C1=C/C[C@H](C)O: inactive
CC(=O)/C=C/[C@]1(O)[C@@H](C)C[C@@H](O)CC1(C)C: inactive
CC(=O)C=C=C1C(C)(C)C[C@H](O)C[C@]1(C)O: inactive
O=c1c(O)c(-c2ccc(O)cc2)oc2cc(O)cc(O)c12: Active
O=C1c2c(O)cc(O)cc2O[C@H](c2ccc(O)c(O)c2)[C@H]1O: Active
O=C1c2c(O)cc(O)cc2O[C@@H](c2ccc(O)c(O)c2)[C@H]1O: Active

QUERY: Given O=C(/C=C/c1ccc(O)cc1)NCCc1ccc(O)cc1 , state its recorded Lipase inhibition (active/not active).
RESULT: Active

QUERY: Also O=c1c(O[C@@H]2O[C@H](CO)[C@@H](O)[C@H](O)[C@H]2O)c(-c2ccc(O)cc2)oc2cc(O)cc(O)c12 ?
RESULT: inactive

QUERY: Also CC1(C)C[C@@H](O)C[C@@]2(C)OC(=O)C=C12 ?
RESULT: inactive

---

Molecular target: Pancreatic triacylglycerol lipase (Sus scrofa) (UniProt P00591)
Test: Inhibition of porcine pancreatic lipase using para-nitrophenyl butyrate as substrate at 100 uM by ELISA
Active and inactive are the calls of the source. The calls are words filed in the database; no cut-off is given here.
Your reply should match one of these outcome classes. class 1 for active, class 0 for inactive

QUERY: Which outcome did this test record for the compound COc1cc(-c2oc3cc(O[C@@H]4O[C@H](CO)[C@@H](O)[C@H](O)[C@H]4O)cc(O)c3c(=O)c2O)ccc1O ?
RESULT: class 0

QUERY: Also C[N+]1([O-])CCc2cc3c(c4c2[C@H]1Cc1ccccc1-4)OCO3 (some centres undefined) ?
RESULT: class 1

QUERY: Also COc1cc2c3c(c1OC)C1(C=CC(=O)C=C1)C[C@H]3N(C)CC2 ?
RESULT: class 1

QUERY: Also COc1cc(/C=C\C(=O)NCCc2ccc(O)cc2)ccc1O ?
RESULT: class 1

QUERY: Also CC1=C2C[C@@H](C(C)(C)O[C@@H]3O[C@H](CO)[C@@H](O)[C@H](O)[C@H]3O)CC[C@@]2(C)CCC1=O ?
RESULT: class 0

QUERY: Also Oc1ccc([C@H]2Oc3c(O)c(O)c(O)c(O)c3C[C@@H]2O)cc1O ?
RESULT: class 1

QUERY: Also CC(=O)/C=C\[C@@H]1[C@@H](C)C[C@@H](O[C@@H]2O[C@H](CO)[C@@H](O)[C@H](O)[C@H]2O)CC1(C)C ?
RESULT: class 0

QUERY: Also CC(=O)C=C=C1C(C)(C)C[C@H](O)C[C@@]1(C)O ?
RESULT: class 0

QUERY: Also CC1=CC(=O)CC(C)(C)[C@@]1(O)/C=C/[C@@H](C)O ?
RESULT: class 0

---

Molecular target: Pancreatic triacylglycerol lipase (Sus scrofa)
Assay: Inhibition of porcine pancreatic lipase using para-nitrophenyl butyrate as substrate at 100 uM by ELISA
Activity calls are given as the source filed them. The calls are words filed in the database; no cut-off is given here.
readout: Lipase inhibition (active/not active)

O=c1c(O)c(-c2ccc(O)c(O)c2)oc2cc(O)cc(O)c12: Active
O=C1c2ccccc2-c2c3c(cc4ccnc1c24)OCO3: Active
O=C1CC[C@@H]2c3cc(O)c(O)cc3CCN12: Active
O=C(/C=C\c1ccc(O)cc1)NCCc1ccc(O)cc1: Active
Oc1cc(O)c2c(c1)O[C@@H](c1ccc(O)c(O)c1)[C@H](O)C2: Active

Field: next compound
QUERY: Given COc1cc(/C=C/C(=O)NCCc2ccc(O)cc2)ccc1O , state its recorded Lipase inhibition (active/not active).
RESULT: Active

---

Biological target: UniProt P00591
Assay: Inhibition of porcine pancreatic lipase using para-nitrophenyl butyrate as substrate at 100 uM by ELISA
The source made the active and inactive calls. The calls are words filed in the database; no cut-off is given here.
Your reply should match one of these outcome classes. 1.0 = active, 0.0 = inactive

QUERY: Which outcome did this test record for the molecule O=c1cc(-c2ccc(O)c(O)c2)oc2cc(O)cc(O)c12 ?
RESULT: 1.0

QUERY: Also CC(=O)/C=C/[C@]12O[C@@]1(C)C[C@@H](O)CC2(C)C ?
RESULT: 0.0

QUERY: Also CC(=O)/C=C/[C@@]1(O)C(C)=CC(=O)CC1(C)C ?
RESULT: 0.0

QUERY: Also CC(=O)/C=C/[C@H]1C(C)=C[C@H](O[C@@H]2O[C@H](CO)[C@@H](O)[C@H](O)[C@H]2O)CC1(C)C ?
RESULT: 0.0
